assay: Inhibition of PD1ss-Gluc secretion in doxycyclin-induced human Flp-In-T-REx-293 cells measured by Gaussia luciferase reporter gene method
Assay type: functional, cell-based
# maps each entry to its IC50
Express your answer in µM, writing the number without its unit.

>  <compound>
CC(C)(C)Cc1csc(NC(=O)Cc2cn(Cc3ccccc3Cl)c3ccc(Cl)cc23)n1

>  <readoutNumber>
6.18

$$$$
>  <compound>
CC(C)(C)c1csc(NC(=O)Cc2cn(Cc3ccccc3)c3ncccc23)n1

>  <readoutNumber>
12.2

$$$$

I would be grateful if you could share the reported IC50 for `CC(C)(C)c1csc(NC(=O)c2cc3c(s2)CCCC3)n1` .
4.44

# repeat for `CC(C)(C)c1csc(NC(=O)Cc2csc3ccc(C#N)cc23)n1`
7.82

Repeat with `C[C@H](c1ccccc1Cl)n1cc(CC(=O)Nc2nc(C(C)(C)C)cs2)c2cc(Cl)ccc21`
4.16

Now this one: `CCC(C)(C)c1csc(NC(=O)Cc2cn(Cc3ccccc3Cl)c3ccc(Cl)cc23)n1`
0.727

Check `Cc1cnccc1Cn1cc(CC(=O)Nc2nc(C(C)(C)C)cs2)c2cc(Cl)ccc21` too.
2.68

How about this compound: CCC(C)n1cc(CC(=O)Nc2nc(C(C)(C)C)cs2)c2cc(Cl)ccc21 (stereo not given)
4.38

Record: `CC(C)(C)c1csc(NC(=O)Cc2cn(Cc3ccccc3)c3nc(Cl)ccc23)n1`
10

Next record, please: `C[C@@H](c1ccccc1Cl)n1cc(CC(=O)Nc2nc(C(C)(C)C)cs2)c2cc(Cl)ccc21`
0.875

----------
Listing of recorded pIC50 by entry.
assay: Inhibition of PD1ss-Gluc secretion in doxycyclin-induced human Flp-In-T-REx-293 cells measured by Gaussia luciferase reporter gene method
Format: functional, cell-based
Keep it numeric: pIC50 is minus log10 of the concentration in mol/L.

These recorded examples may help you get a feel for the data.
>  <smilesRepresentation>
CC(C)(C)c1csc(NC(=O)Cc2cn(CCc3ccccc3)c3ccc(Cl)cc23)n1

>  <pIC50>
5.38

$$$$
>  <smilesRepresentation>
CC(C)(C)c1csc(NC(=O)Cc2cn(-c3ccc(Cl)cc3)c3ccc(Cl)cc23)n1

>  <pIC50>
5.57

$$$$
>  <smilesRepresentation>
CC(C)(C)c1csc(NC(=O)Cc2cn(Cc3ccc(C(N)=O)cc3)c3ccc(Cl)cc23)n1

>  <pIC50>
5.05

$$$$
>  <smilesRepresentation>
CC(C)(C)c1csc(NC(=O)Cc2cn(Cc3ccccc3Cl)c3ccc(Cl)cc23)n1

>  <pIC50>
5.94

$$$$
>  <smilesRepresentation>
CC(C)(C)c1csc(NC(=O)Cc2cn(C3CCCCC3)c3ccc(Cl)cc23)n1

>  <pIC50>
5.47

$$$$

Any idea what its pIC50 is? The compound is `CC(C)(C)c1csc(NC(=O)Cc2cn(Cc3ccccc3)c3ccncc23)n1`
5.07

Please do the same for `CC(C)(C)c1csc(NC(=O)Cc2cn(Cc3ccccc3)c3ccc(Cl)cc23)n1` as well.
5.37

----------
Quick reference: inhibition at 2.5 µM of the listed items.
assay: Inhibition of TNF-alpha-FL-Gluc secretion in doxycyclin-induced human Flp-In-T-REx-293 cells at 2.5 uM measured by Gaussia luciferase reporter gene method relative to control
Type: functional
Write down the numeric answer in % and omit the unit.

For orientation, consider the following solved cases.
>  <smilesRepresentation>
CC(C)(C)c1csc(NC(=O)c2cccs2)n1

>  <inhibition at 2.5 µM / %>
24

$$$$
>  <smilesRepresentation>
CC(C)(C)c1csc(NC(=O)c2ccc(Cl)cc2)n1

>  <inhibition at 2.5 µM / %>
0

$$$$
>  <smilesRepresentation>
COc1ccc2c(c1)cc(-c1ccc(C(=O)Nc3nc(C(C)(C)C)cs3)s1)n2C(=O)OC(C)(C)C

>  <inhibition at 2.5 µM / %>
0

$$$$
>  <smilesRepresentation>
CC(C)(C)c1csc(NC(=O)c2cc3c(s2)CCN(Cc2ccccc2)C3)n1

>  <inhibition at 2.5 µM / %>
22

$$$$

Endpoint output: inhibition at 2.5 µM of `COc1ccc2[nH]c(-c3ccc(C(=O)Nc4nc(C(C)(C)C)cs4)s3)cc2c1` . Value?
27

Consider next the compound `CC(C)(C)c1csc(NC(=O)c2cc3c(s2)CCNC3)n1` in the same way.
0

----------
assay: Inhibition of TNF-alpha-FL-Gluc secretion in doxycyclin-induced human Flp-In-T-REx-293 cells measured by Gaussia luciferase reporter gene method
Assay type: functional, cell-based
Reported IC50 values for the following compounds.
Entry rule: numbers only, all in µM.

# count of solved cases: 5
>  <smilesRepresentation>
CC(C)(C)c1csc(NC(=O)c2cc3c(s2)CCCC3)n1

>  <IC50 / µM>
22.7

$$$$
>  <smilesRepresentation>
CC(C)(C)c1csc(NC(=O)c2cc3c(s2)CCCCC3)n1

>  <IC50 / µM>
4.3

$$$$
>  <smilesRepresentation>
Cc1cc(C(=O)Nc2nc(C(C)(C)C)cs2)sc1-c1ccccc1

>  <IC50 / µM>
31

$$$$
>  <smilesRepresentation>
CC(C)(C)c1csc(NC(=O)c2cc3c(s2)CCC3)n1

>  <IC50 / µM>
18

$$$$
>  <smilesRepresentation>
CC(C)(C)c1csc(NC(=O)c2cc(Br)cs2)n1

>  <IC50 / µM>
72

$$$$

Lab note: next compound to report on.
Which IC50 is listed for `CCOC(C)(C)c1csc(NC(=O)Cc2cn(Cc3ccccc3Cl)c3ccc(Cl)cc23)n1` ?
24.4

----------
assay: Inhibition of PD1ss-Gluc secretion in doxycyclin-induced human Flp-In-T-REx-293 cells measured by Gaussia luciferase reporter gene method
Format: functional, cell-based
readoutKind: IC50 (µM)
Use µM as the unit, but write only the number.

>  <molecule>
CC(C(=O)Nc1nc(C(C)(C)C)cs1)c1cn(Cc2ccccc2)c2ccc(Cl)cc12 (stereo not given)

>  <readoutKind>
IC50

>  <readoutNumber>
6.06

$$$$
>  <molecule>
COc1ccc2c(c1)c(CC(=O)Nc1nc(C(C)(C)C)cs1)cn2Cc1ccccc1

>  <readoutKind>
IC50

>  <readoutNumber>
3.41

$$$$
>  <molecule>
CC(C)(C)c1csc(NC(=O)c2cc3cc(-c4ccccc4Cl)ccc3s2)n1

>  <readoutKind>
IC50

>  <readoutNumber>
3.87

$$$$
>  <molecule>
CC(C)(C)c1csc(NC(=O)c2cn(Cc3ccccc3)c3ccccc23)n1

>  <readoutKind>
IC50

>  <readoutNumber>
7.05

$$$$
>  <molecule>
Cc1cc(Cn2cc(CC(=O)Nc3nc(C(C)(C)C)cs3)c3cc(Cl)ccc32)ccn1

>  <readoutKind>
IC50

>  <readoutNumber>
6.1

$$$$
>  <molecule>
Cc1cc(C(=O)Nc2nc(C(C)(C)C)cs2)cs1

>  <readoutKind>
IC50

>  <readoutNumber>
9.84

$$$$
>  <molecule>
CNC(=O)c1ccc2sc(C(=O)Nc3nc(C(C)(C)C)cs3)cc2c1

>  <readoutKind>
IC50

>  <readoutNumber>
8.8

$$$$
>  <molecule>
CC(C)OC(C)(C)c1csc(NC(=O)Cc2cn(Cc3ccccc3Cl)c3ccc(Cl)cc23)n1

>  <readoutKind>
IC50

>  <readoutNumber>
0.715

$$$$
>  <molecule>
COC(C)(C)c1csc(NC(=O)Cc2cn(Cc3ccccc3Cl)c3ccc(Cl)cc23)n1

>  <readoutKind>
IC50

>  <readoutNumber>
1.04

$$$$
>  <molecule>
CC(C)(C)c1csc(NC(=O)Cc2csc3ccc(Cl)cc23)n1

>  <readoutKind>
IC50

>  <readoutNumber>
5.37

$$$$

Param item = `CC(C)(C)c1csc(NC(=O)Cc2cn(Cc3ccccc3)c3ccc(Br)cc23)n1` ; retrieve measured IC50.
6.13

How about `CCC(C)(C)c1csc(NC(=O)Cc2cn(Cc3ccccc3)c3ccc(Cl)cc23)n1` ?
2.2

Try the molecule `CC(C)(C)c1csc(NC(=O)Cc2cn(Cc3ccon3)c3ccc(Cl)cc23)n1`
10.3

Let us now turn to `CC(C)(C)c1csc(NC(=O)Cc2cn(-c3ccccc3Cl)c3ccc(Cl)cc23)n1`
4.4

Check `CC(C)(C)c1csc(NC(=O)Cc2cn(CC(=O)Nc3ccccc3O)c3ccc(Cl)cc23)n1` too.
10.4

----------
assay: Inhibition of TNF-alpha-FL-Gluc secretion in doxycyclin-induced human Flp-In-T-REx-293 cells measured by Gaussia luciferase reporter gene method
Format: functional, cell-based
readoutKind: IC50

A selection of reference data follows.
>  <smilesRepresentation>
CC(C)(C)c1csc(NC(=O)Cc2cn(CC(=O)Nc3ccccc3O)c3ccc(Cl)cc23)n1

>  <IC50>
17.7 µM

$$$$
>  <smilesRepresentation>
CC(C)(C)c1csc(NC(=O)Cc2cn(Cc3ccc(F)cc3Cl)c3ccc(Cl)cc23)n1

>  <IC50>
> 25 µM

$$$$

We now examine a further molecule.
Look up IC50: `CC(C)(C)c1csc(NC(=O)Cc2cn(Cc3ccc(C(N)=O)cc3)c3ccc(Cl)cc23)n1`
> 25 µM
